B1: 26S proteasome non-ATPase regulatory subunit 4 homolog (Arabidopsis thaliana (Mouse-ear cress)), P55034 (parent)
chain: MVLEATMICIDNSEWMRNGDYSPSRLQAQTEAVNLLCGAKTQSNPENTVGILTMAGKGVRVLTTPTSDLGKILACMHGLDVGGEINLTAAIQIAQLALKHRQNKNQRQRIIVFAGSPIKYEKKALEIVGKRLKKNSVSLDIVNFGEDDDEEKPQKLEALLTAVNNNDGSHIVHVPSGANALSDVLLSTPVFTGDEGASGYVSAAAAAAAAGGDFDFGVDPNIDPELALALRVSMEEERARQEAAAKKAADEAGQKDKDGDTASASQETVARTTDKNAEPMDEDSALLDQAIAMSVGDVNMSEAADEDQDLALALQMSMSGEESSEATGAGNNLLGNQAFISSVLSSLPGVDPNDPAVKELLASLPDESKRTEEEESSSKKGEDEKK

# Variants of: B1
# CONDITIONS: with dsk2_yeast DSK2, P48510
# Sequence (P48510 whole entry): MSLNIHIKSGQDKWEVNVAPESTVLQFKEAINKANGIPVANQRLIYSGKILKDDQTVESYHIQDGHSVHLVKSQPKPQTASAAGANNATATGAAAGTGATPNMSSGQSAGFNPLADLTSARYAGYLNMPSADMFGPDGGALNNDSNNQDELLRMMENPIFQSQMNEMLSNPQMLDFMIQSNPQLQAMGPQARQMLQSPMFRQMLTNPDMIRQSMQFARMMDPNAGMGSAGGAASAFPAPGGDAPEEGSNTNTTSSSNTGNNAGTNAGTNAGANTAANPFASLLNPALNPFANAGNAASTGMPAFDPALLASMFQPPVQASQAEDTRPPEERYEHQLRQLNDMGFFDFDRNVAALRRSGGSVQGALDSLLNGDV
RECORDED ENDPOINT: effect of a mutation on the interaction

L310N;A311N;L312N;A313D;L314N = with no effect
L286N;L287N;Q289N;A290D = with no effect
L286N;L287N;Q289N;A290D;L310N;A311N;L312N;A313D;L314N = with no effect
